# assay-system: Aryl hydrocarbon receptor (Homo sapiens) (UniProt P35869)
# Sequence (P35869 whole entry, looked up): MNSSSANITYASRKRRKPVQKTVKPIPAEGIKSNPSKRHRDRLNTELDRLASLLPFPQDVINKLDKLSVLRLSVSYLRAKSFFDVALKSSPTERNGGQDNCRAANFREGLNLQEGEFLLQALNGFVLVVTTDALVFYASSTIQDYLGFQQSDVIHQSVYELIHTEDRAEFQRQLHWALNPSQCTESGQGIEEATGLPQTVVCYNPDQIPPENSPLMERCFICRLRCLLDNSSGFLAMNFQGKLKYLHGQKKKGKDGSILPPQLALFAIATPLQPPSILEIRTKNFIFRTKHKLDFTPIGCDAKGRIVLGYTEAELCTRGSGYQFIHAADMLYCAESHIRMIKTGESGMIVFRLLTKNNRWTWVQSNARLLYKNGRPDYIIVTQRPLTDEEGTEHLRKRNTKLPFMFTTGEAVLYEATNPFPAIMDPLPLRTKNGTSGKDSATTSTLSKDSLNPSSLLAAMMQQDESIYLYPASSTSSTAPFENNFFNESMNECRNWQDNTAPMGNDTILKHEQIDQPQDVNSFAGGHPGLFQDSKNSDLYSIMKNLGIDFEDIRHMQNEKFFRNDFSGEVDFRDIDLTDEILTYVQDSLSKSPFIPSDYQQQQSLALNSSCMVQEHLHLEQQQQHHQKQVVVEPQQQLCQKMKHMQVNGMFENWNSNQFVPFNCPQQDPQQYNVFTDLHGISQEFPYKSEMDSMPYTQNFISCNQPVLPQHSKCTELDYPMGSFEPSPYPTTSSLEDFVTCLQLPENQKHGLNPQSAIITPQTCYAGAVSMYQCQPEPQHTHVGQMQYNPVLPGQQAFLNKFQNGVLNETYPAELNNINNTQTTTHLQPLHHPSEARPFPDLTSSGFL
# experiment: qHTS assay to identify small molecule that activate the aryl hydrocarbon receptor (AhR) signaling pathway (AID 743085);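 note: HG2L7.5c1 human HepG2 liver cells with stably integrated DRE-driven firefly reporter; % is set by controls: 0 for no effect and ±100 for the full control effect; nearly all actives have a fitted effect of over 15% in size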
# test-settings: HepG2 AhR-luc (HG2L7.5c1), luciferase, 24 h; series mostly up to 70.3 µM
# Excerpt: U.S. Tox21 Program National Center for Advancing Translational Sciences [NCATS] NIH Chemical Genomics Center [NCGC] U.S. Environmental Protection Agency [EPA] National Institutes of Environmental Health Sciences [NIEHS] National Toxicology Program [NTP] U.S. Food and Drug Administration [FDA] Tox21 Assay overview: The Aryl hydrocarbon Receptor (AhR), a member of the family of basic helix-loop-helix transcription factors, is crucial to adaptive responses to environmental changes. […]
Results filed as inconclusive are left out. Activity calls are given as the source filed them. Calls come from the whole dose curve; as a rule, active = well fitted activation curve with a large enough effect in the repeat runs; inconclusive = weak or mixed curves; inactive = no such curve, though single readings can be large or run the other way.
// classify into 1 for active, -1 for inactive

Please review the following examples before continuing.
C[Si](C)(C)O[Si](C)(C)C = -1
O=Cc1ccccc1O = -1
c1ccc(Nc2ccccc2)cc1 = -1

Task item: Write down the call the test reported for this molecule. Item: O=S(=O)(O)c1ccc(O)cc1
Reply: -1

Task item: Same question, CN(C)CCC=C1c2ccccc2CCc2ccccc21 this time
Reply: -1

Task item: Same question, c1ccc2c(c1)c1cccc3ccc4cccc2c4c31 this time
Reply: -1

Task item: Same question, Nc1ccc(Cl)cc1Cl this time
Reply: -1

Task item: Same question, OCCO this time
Reply: -1

---

# experiment: A CellTox Green Cytotoxicity Assay to monitor cytotoxicity in HEK293 cells - 40 hour (AID 1224871); note: nearly all actives have a fitted effect of over 45% in size
# test-settings: CellTox Green fluorescence; series mostly up to 76.8 µM
Records with an inconclusive call do not appear. The source made the active and inactive calls. Calls follow the shape of the dose curve; as a rule, active = well fitted activation curve with a large enough effect in the repeat runs; inconclusive = weak or mixed curves; inactive = flat fitted curve, though single readings scatter.
// classify into active, inactive

Please review the following examples before continuing.
CC(=O)CC/C=C(\C)CCC=C(C)C = inactive
CCOC(=O)C(C#N)=C(c1ccccc1)c1ccccc1 = inactive
O=CCCCC=O = inactive
CCCCCCCCCC(=O)OC = inactive
C[C@]12CCC(=O)C=C1CC[C@@H]1[C@@H]2C(=O)C[C@@]2(C)[C@H]1CC[C@]2(O)C(=O)CO = inactive

Task item: Write down the call the test reported for this compound. Item: Cc1ccc(C)c(O)c1C
Reply: inactive

Task item: Same question, CC(C)CC(C)(O)C#CC(C)(O)CC(C)C (configuration not stated) this time
Reply: inactive

---

# assay-system: Glucocorticoid receptor (Homo sapiens) (UniProt P04150)
# Sequence (P04150 whole entry, looked up): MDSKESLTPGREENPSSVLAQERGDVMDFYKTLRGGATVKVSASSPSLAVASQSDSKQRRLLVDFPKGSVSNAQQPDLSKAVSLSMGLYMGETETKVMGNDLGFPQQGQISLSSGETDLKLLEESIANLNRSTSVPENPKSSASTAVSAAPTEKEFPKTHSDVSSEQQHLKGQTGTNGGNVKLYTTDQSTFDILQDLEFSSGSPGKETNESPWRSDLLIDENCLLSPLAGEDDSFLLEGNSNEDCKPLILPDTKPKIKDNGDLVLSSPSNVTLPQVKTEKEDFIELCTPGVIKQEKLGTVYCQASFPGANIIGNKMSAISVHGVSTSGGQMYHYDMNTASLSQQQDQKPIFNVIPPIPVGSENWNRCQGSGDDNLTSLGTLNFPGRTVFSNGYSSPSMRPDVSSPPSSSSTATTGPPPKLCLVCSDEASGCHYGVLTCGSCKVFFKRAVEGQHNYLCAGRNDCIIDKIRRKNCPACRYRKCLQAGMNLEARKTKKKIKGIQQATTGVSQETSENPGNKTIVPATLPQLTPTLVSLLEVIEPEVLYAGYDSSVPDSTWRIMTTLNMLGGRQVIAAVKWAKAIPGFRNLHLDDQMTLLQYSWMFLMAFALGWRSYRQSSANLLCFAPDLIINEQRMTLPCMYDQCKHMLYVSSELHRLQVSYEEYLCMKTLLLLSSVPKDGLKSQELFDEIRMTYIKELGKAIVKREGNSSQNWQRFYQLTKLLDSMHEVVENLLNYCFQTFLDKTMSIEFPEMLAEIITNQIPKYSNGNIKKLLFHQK
# experiment: qHTS assay to identify small molecule antagonists of the glucocorticoid receptor (GR) signaling pathway (AID 720692); note: potency is the fitted concentration of half-maximal effect
# test-settings: GR-bla HeLa, beta-lactamase FRET ratio, dexamethasone-stimulated, 18 h; series mostly up to 58.5 µM
# Description: U.S. Tox21 Program National Center for Advancing Translational Sciences [NCATS] NIH Chemical Genomics Center [NCGC] U.S. Environmental Protection Agency [EPA] National Institutes of Environmental Health Sciences [NIEHS] National Toxicology Program [NTP] U.S. Food and Drug Administration [FDA] […] The activation of the reporter gene under culture conditions can be detected by fluorescence intensity. […]
Inconclusive results are not listed. Calls of active or inactive are those of the source. Calls come from the whole dose curve; as a rule, active = well fitted inhibition curve with a large enough effect in the signal ratio in the repeat runs (not every such curve was filed as active); inconclusive = weak or mixed curves, or effect the other way; inactive = no such curve, though single readings can be large or run the other way; the % refers to the signal ratio.
readout-kind: Potency

Worked cases, Potency given:
O=S(=O)(O)c1ccc(O)cc1 = inactive
CN1C(C(=O)Nc2ccccn2)=C(O)c2ccccc2S1(=O)=O = inactive
S=C(NC1CCCCC1)NC1CCCCC1 = inactive
O=C(O)c1ccccc1Nc1cccc(C(F)(F)F)c1 = 49 µM (active)
Nc1ccc(Cl)cc1Cl = inactive
O=C=Nc1ccc(Cc2ccc(N=C=O)cc2)cc1 = inactive
CCC(C)c1ccccc1O (stereo not drawn) = inactive

Pending compound:
Task item: Could you tell me which Potency is on file for Cc1ccc(C)c(O)c1C ?
Reply: inactive

---

# experiment: A CellTox Green Cytotoxicity Assay to monitor cytotoxicity in HEK293 cells - 40 hour (AID 1224871); note: nearly all actives have a fitted effect of over 45% in size
# test-settings: CellTox Green fluorescence; series mostly up to 76.8 µM
Records with an inconclusive call do not appear. Activity calls are given as the source filed them. Calls follow the shape of the dose curve; as a rule, active = well fitted activation curve with a large enough effect in the repeat runs; inconclusive = weak or mixed curves; inactive = flat fitted curve, though single readings scatter.
// classify into yes (1) for active, no (0) for inactive

Please review the following examples before continuing.
CCCCNS(=O)(=O)c1ccccc1 = no (0)
S=C(NC1CCCCC1)NC1CCCCC1 = no (0)

Task item: Write down the call the test reported for this compound. Item: C=CC(C)(CCC=C(C)C)OC(C)=O (stereo not given)
Reply: no (0)

Task item: Same question, c1ccncc1 this time
Reply: no (0)

Task item: Same question, CC1=CCC(C(C)(C)O)CC1 (stereo not given) this time
Reply: no (0)

Task item: Same question, CCC(C)c1ccccc1O (stereo not given) this time
Reply: yes (1)

---

# experiment: qHTS assay to identify small molecule antagonists of the vitamin D receptor (VDR) signaling pathway - cell viability counter screen (AID 743225); note: nearly all actives have a fitted effect of over 50% in size
# test-settings: VDR-bla HEK293T viability, CellTiter-Glo luminescence, 16 h; series mostly up to 61 µM
Results filed as inconclusive are left out. The source made the active and inactive calls. Calls follow the shape of the dose curve; as a rule, active = well fitted cell-killing curve with a large enough effect in the repeat runs; inconclusive = weak or mixed curves, or effect the other way; inactive = no such curve, though single readings can be large or run the other way.
// classify into active, inactive

COC(=O)c1ccccc1 = inactive
CNCCCC12CCC(c3ccccc31)c1ccccc12 = active
O=[N+]([O-])c1ccc2c(c1)Cc1ccccc1-2 = inactive

Task item: Write down the call the test reported for this compound. Item: CN(C)C(=N)N=C(N)N
Reply: inactive

Task item: Same question, Cn1cnc([N+](=O)[O-])c1Sc1ncnc2nc[nH]c12 this time
Reply: inactive

Task item: Same question, O=C(COc1ccc(Cl)cc1)N1CCN(Cc2ccc3c(c2)OCO3)CC1 this time
Reply: inactive

Task item: Same question, CCOC(=O)C(C#N)=C(c1ccccc1)c1ccccc1 this time
Reply: inactive

Task item: Same question, Oc1ccc(O)cc1 this time
Reply: inactive

---

# assay-system: Nuclear receptor subfamily 1 group I member 3 (Homo sapiens) (UniProt Q14994)
# Sequence (Q14994 whole entry, looked up): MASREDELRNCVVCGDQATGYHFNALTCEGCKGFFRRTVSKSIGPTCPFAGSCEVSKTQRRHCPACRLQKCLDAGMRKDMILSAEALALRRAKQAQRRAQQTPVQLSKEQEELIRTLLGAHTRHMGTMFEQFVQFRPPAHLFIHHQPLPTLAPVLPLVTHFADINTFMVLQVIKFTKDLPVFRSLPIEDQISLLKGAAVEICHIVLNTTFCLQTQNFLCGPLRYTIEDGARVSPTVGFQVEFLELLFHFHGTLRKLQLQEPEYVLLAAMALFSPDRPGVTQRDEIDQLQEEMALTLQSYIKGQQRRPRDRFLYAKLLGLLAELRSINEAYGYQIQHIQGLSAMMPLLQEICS
# experiment: qHTS assay to identify small molecule agonists of the constitutive androstane receptor (CAR) signaling pathway (AID 1224839);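 note: HepG2 cells stably carrying human CAR and a CYP2B6 luciferase reporter; % is set by controls: 0 for no effect and ±100 for the full control effect; nearly all actives have a fitted effect of over 15% in size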
# test-settings: HepG2 hCAR CYP2B6-luciferase, agonist mode, 24 h; series mostly up to 92.4 µM
# Source text: National Center for Advancing Translational Sciences [NCATS] NIH Chemical Genomics Center [NCGC] U.S. Environmental Protection Agency [EPA] National Institutes of Environmental Health Sciences [NIEHS] National Toxicology Program [NTP] […] Assay Protocol Summary: A double-stable (hCAR and CYP2B6-2.2kb) transfected cell line, derived from human hepatoma (HepG2) cells, was utilized for the duration of the quantitative high-throughput screens. […]
Results filed as inconclusive are left out. Calls of active or inactive are those of the source. The call rests on the fitted dose curve; in most records, active means well fitted activation curve with a large enough effect in the repeat runs; inconclusive means weak or mixed curves; inactive means no such curve, though single readings can be large or run the other way.
// classify into class 1 for active, class 0 for inactive

Please review the following examples before continuing.
CC(C)(C)NC(=O)[C@H]1CC[C@H]2[C@@H]3CC[C@H]4NC(=O)C=C[C@]4(C)[C@H]3CC[C@]12C = class 0
CC(CCC(=O)O)(c1ccc(O)cc1)c1ccc(O)cc1 = class 0
Clc1nc(Cl)c(Cl)c(Cl)c1Cl = class 0
CC1=CC2C3CC(C=C3C)C2C1 (stereo not drawn) = class 0

Task item: Write down the call the test reported for this compound. Item: CCCCCCCCCC(=O)OC
Reply: class 0

Task item: Same question, O=C(c1ccccc1)c1ccccc1O this time
Reply: class 0

Task item: Same question, COc1ccc(C(=O)CC(=O)c2ccc(C(C)(C)C)cc2)cc1 this time
Reply: class 0

---

# assay-system: Progesterone receptor (Homo sapiens) (UniProt P06401)
# Sequence (P06401 whole entry, looked up): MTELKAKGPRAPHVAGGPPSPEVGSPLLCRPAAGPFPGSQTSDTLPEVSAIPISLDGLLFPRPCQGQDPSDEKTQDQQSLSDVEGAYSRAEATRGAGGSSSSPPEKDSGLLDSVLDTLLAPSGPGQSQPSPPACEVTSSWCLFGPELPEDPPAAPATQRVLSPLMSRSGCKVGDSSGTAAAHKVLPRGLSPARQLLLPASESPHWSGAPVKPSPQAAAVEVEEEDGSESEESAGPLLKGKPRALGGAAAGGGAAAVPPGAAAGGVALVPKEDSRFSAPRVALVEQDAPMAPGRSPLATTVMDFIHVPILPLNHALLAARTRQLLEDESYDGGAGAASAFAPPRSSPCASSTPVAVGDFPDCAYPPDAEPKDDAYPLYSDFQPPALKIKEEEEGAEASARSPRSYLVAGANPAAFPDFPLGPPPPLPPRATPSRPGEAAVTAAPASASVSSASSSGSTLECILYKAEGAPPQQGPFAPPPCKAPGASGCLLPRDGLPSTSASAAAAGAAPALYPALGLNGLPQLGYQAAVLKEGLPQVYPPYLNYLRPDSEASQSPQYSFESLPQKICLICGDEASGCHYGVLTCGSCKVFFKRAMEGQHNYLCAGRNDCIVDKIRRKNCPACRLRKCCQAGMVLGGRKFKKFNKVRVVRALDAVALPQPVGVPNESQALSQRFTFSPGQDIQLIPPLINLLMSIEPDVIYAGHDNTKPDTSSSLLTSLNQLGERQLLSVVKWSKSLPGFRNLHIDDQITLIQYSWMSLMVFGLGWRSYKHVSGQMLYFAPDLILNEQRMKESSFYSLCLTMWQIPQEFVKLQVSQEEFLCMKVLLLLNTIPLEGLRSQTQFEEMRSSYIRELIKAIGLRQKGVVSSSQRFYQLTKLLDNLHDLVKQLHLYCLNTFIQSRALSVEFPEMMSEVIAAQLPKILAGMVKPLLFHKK
# experiment: qHTS assay to identify small molecule agonists of the progesterone receptor (PR) signaling pathway (AID 1346784); note: % is set by controls: 0 for no effect and ±100 for the full control effect; nearly all actives have a fitted effect of over 30% in size
# test-settings: PR-UAS-bla HEK293T, beta-lactamase FRET ratio, 16 h; series mostly up to 92.4 µM
Inconclusive results are not listed. Calls of active or inactive are those of the source. Calls follow the shape of the full dose curve.
readout-kind: outcome

Worked cases, outcome given:
Nc1ccc(Cl)cc1Cl = inactive
CC(C)CC(C)(O)C#CC(C)(O)CC(C)C (configuration not stated) = inactive
CCCCC/C=C/C=C/C=O = inactive
Cc1cccc(C(=O)O)c1 = inactive
O=C=Nc1ccc(Cc2ccc(N=C=O)cc2)cc1 = inactive

Could you tell me outcome for each of these compounds? They are listed below.
1. OCCO
2. CC(C)OB(OC(C)C)OC(C)C

Reply:
inactive
inactive

---

# experiment: qHTS assay to identify small molecule agonists of the sonic hedgehog signaling (Shh) pathway (AID 1259368);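 note: NIH/3T3-derived 3T3Gli1-Luc cells carrying a stable Gli1-driven firefly luciferase reporter; % is set by controls: 0 for no effect and ±100 for the full control effect; nearly all actives have a fitted effect of over 15% in size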
# test-settings: NIH/3T3 Gli1-Luc reporter, luciferase, 24 h; series mostly up to 92.4 µM
The source made the active and inactive calls. Calls come from the whole dose curve.
readout-kind: outcome

COc1ccc(C(=O)CC(=O)c2ccc(C(C)(C)C)cc2)cc1 = inactive
CC(=O)c1ccccn1 = inactive
CC1=CC2C3CC(C=C3C)C2C1 (stereo not given) = inactive
COc1cccc2c1C(=O)c1c(O)c3c(c(O)c1C2=O)C[C@@](O)(C(=O)CO)C[C@@H]3O[C@H]1C[C@H](N)[C@H](O)[C@H](C)O1 = inactive

Pending molecule:
Task item: Could you tell me which outcome is on file for O=C(COc1ccc(Cl)cc1)N1CCN(Cc2ccc3c(c2)OCO3)CC1 ?
Reply: inactive
